molecular target: Mouse ACVR2A (mouse, UniProt P27038 20-135, limits assumed); experiment: ELISA; note: test concentration or dose not given here
Sequence (P27038 20-135 limits assumed): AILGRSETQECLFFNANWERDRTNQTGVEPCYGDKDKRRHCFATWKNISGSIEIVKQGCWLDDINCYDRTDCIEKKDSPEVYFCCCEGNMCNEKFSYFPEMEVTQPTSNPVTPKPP
Reported values of optical density for individual entries
Numeric only. Scale: OD

{"BINDER": "373_B10 (antibody, V domains shown) VH: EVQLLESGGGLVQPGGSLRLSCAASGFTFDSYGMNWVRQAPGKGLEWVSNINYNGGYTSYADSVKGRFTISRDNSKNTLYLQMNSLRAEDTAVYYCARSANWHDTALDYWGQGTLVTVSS VL: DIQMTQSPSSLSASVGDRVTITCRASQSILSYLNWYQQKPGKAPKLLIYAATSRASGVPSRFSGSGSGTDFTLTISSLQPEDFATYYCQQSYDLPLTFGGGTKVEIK", "optical density [OD]": 3.6}
{"BINDER": "367_E01 (antibody, V domains shown) VH: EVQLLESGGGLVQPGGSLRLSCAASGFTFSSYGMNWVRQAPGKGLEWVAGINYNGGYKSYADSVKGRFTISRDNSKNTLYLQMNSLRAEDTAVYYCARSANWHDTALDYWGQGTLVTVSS VL: DIQMTQSPSSLSASVGDRVTITCRASQSILSYVNWYQQKPGKAPKLLIYATTSRASGVPSRFSGSGSGTDFTLTISSLQPEDFATYYCQQSYDLPLTFGGGTKVEIK", "optical density [OD]": 2.52}

The record that follows has no optical density shown yet.
State its optical density for this binder: 373_A10 (antibody, V domains shown) VH: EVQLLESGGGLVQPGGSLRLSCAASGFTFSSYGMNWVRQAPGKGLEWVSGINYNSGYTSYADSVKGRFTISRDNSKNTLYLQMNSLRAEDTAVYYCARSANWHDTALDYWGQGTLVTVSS VL: DIQMTQSPSSLSASVGDRVTITCRASQSILSYLNWYQQKPGKAPKLVIYAATSRASGVPSRFSGSGSGTDFTLTISSLQPEDFATYYCQQSYDLPLTFGGGTKVEIK
3.55
